biological target: HLA-A*0201 molecule (Homo sapiens, UniProt P04439, D140Y/D185E/D98H/E176V/E277Q/G131W/G231S/I119V/I121R/I166T/I218V/L300P/L318F/N151K/N90K/P208A/P217A/Q86G/Q94H/R138H/R169H/T345S); assay: In vitro binding to HLA-A*0201
Ends that are not written are not given here.
In this section, each of the sequences is paired with its reported IC50.
metric_name: IC50 (nM)

>  <biopolymer_sequence>
SLADQLIHL [Vif 101 (1 S)]

>  <value>
43

$$$$
>  <biopolymer_sequence>
GLADQLIHI [Vif 101 (9 I)]

>  <value>
30

$$$$
>  <biopolymer_sequence>
DLADQLIHL [Vif 101 (1 D)]

>  <value>
1950

$$$$
>  <biopolymer_sequence>
ELADQLIHL [Vif101(1E)^var]

>  <value>
6590

$$$$
>  <biopolymer_sequence>
HLADQLIHQ [G1HL9Q]

>  <value>
1160

$$$$
